Molecular target: h17β-HSD2 (Homo sapiens, UniProt P37059)
Sequence (P37059 whole entry): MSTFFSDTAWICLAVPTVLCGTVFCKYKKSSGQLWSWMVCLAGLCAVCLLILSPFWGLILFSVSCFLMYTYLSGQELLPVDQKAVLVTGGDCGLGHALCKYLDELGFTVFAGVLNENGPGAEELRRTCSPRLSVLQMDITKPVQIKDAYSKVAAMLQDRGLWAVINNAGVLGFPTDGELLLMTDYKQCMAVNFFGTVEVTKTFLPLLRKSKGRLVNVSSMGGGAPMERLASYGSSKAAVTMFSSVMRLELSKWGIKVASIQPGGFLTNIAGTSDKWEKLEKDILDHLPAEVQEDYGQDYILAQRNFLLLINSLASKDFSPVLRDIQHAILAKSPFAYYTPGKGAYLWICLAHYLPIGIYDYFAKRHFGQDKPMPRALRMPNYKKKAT
Test: Inhibition of h17β-HSD2 in cell-free assay
Format: biochemical
Design: from tissue; host or cells: human placenta, microsomal fraction
Procedure: h17β-HSD2, h17β-HSD1, m17β-HSD2 and m17β-HSD1 cell-free assays were performed similarly, by incubating enzyme, tritiated substrate, cofactor and inhibitor, according to described procedures. […] Inhibitory activities were evaluated following an established method with minor modifications. […] Detection and quantification of the steroids were performed using a radioflow detector (Berthold Technologies, Bad Wildbad). […] Each value was calculated from at least two independent experiments.
ASSAY READOUT: IC50 (nM)
One number for each entry, in nM.

Below are worked cases with known answers.
molecule="COc1cccc(N(C)C(=O)c2ccc(-c3cccc(N(C)C)c3)cc2)c1 [Compound 15a]" assay_readout=IC50 reported=650
molecule="COc1cccc(N(C)C(=O)c2ccc(-c3cccc(F)c3)cc2)c1 [Compound 13a]" assay_readout=IC50 reported=1000
molecule="COc1cccc(N(C)C(=O)c2ccc(-c3ccc(OC)c(OC)c3)cc2)c1 [Compound 16a]" assay_readout=IC50 reported=520
molecule="Cc1cccc(N(C)C(=O)c2ccc(-c3ccc4c(c3)OCO4)cc2)c1 [Compound 23a]" assay_readout=IC50 reported=560
molecule="COc1cccc(N(C)C(=O)c2ccc(-c3ccc(C)c(C)c3)cc2)c1 [Compound 17a]" assay_readout=IC50 reported=300

Provide IC50 values for the following items, in order.
1. COc1ccc(-c2ccc(C(=O)N(C)c3cccc(OC)c3)cc2)cc1 [Compound 10a]
2. COc1cccc(-c2ccc(C(=O)N(C)c3cccc(OC)c3)cc2)c1 [Compound 7a]

1. 710
2. 330

Provide IC50 values for the following items, in order.
1. COc1cccc(N(C)C(=O)c2ccc(-c3cccc(C)c3)cc2)c1 [Compound 6a]
2. COc1cccc(N(C)C(=O)c2ccc(-c3cccc(Cl)c3)cc2)c1 [Compound 14a]
3. Cc1cccc(-c2ccc(C(=O)N(C)Cc3cccc(O)c3)cc2)c1F [Compound 25]
4. COc1cccc(CN(C)C(=O)c2ccc(-c3cccc(C)c3F)cc2)c1 [Compound 25a]
5. Cc1cccc(N(C)C(=O)c2ccc(-c3cccc(C)c3F)cc2)c1 [Compound 21a]
6. COc1cccc(N(C)C(=O)c2ccc(-c3cccc(C)c3F)cc2)c1 [Compound 20a]

1: 260; 2: 950; 3: 260; 4: 310; 5: 330; 6: 460
